FYI, the data here is from patent US7351690B2.

molecular target: hMC4-R (Homo sapiens, UniProt P32245); construct: expressed in transfected cells; experiment: competitive inhibition binding assay, 125I-NDP-alpha-MSH, hMC4-R membranes; details: 1 μM test peptide; 0.4 nM 125I-NDP-alpha-MSH; hMC4-R membranes
Sequence (P32245 whole entry): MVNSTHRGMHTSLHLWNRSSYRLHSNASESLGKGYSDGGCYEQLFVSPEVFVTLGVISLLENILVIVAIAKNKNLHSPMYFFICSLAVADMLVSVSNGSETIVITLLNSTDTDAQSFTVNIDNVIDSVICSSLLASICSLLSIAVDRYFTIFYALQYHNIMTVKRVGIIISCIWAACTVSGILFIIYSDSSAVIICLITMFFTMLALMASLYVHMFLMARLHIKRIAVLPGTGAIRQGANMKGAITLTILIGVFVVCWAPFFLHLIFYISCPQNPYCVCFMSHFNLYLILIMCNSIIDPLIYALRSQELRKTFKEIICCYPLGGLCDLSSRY
Square brackets hold non-standard residues; d marks the D form. Ends that are not written are not given here. Nle = CCCC[C@H](N)C(=O)O
assay-readout: % Inhibition at 1 μM at Melanocortin Receptor 4 (%)
Hi! Could you send only the number? It should be in %, unit omitted.

Example entries and their recorded answers appear below.
Tyr-Val-Nle-Gly-His-Phe-Arg-Trp-Asp-Arg-Cys-Phe-NH2 (YV[Nle]GHFRWDRCF-NH2; numbers in words are those of the source; also: oxorhenium(V) N3S1 chelate (Re=O) with Cys) [4-2]
23
Tyr-Val-Nle-Gly-His-D-Phe-Arg-Cys-Asp-Arg-Phe-NH2 (YV[Nle]GH[dF]RCDRF-NH2; numbers in words are those of the source; also: oxorhenium(V) N3S1 chelate complex (Re=O)) [5-4]
18
Tyr-Val-Nle-Gly-His-D-Phe-Arg-Trp-Cys-Asp-Arg-Phe-NH2 (YV[Nle]GH[dF]RWCDRF-NH2; also: Re complex) [3-4]
94

Proceeding to the next substance to report its % Inhibition at 1 μM at Melanocortin Receptor 4.
Look up % Inhibition at 1 μM at Melanocortin Receptor 4: Tyr-Val-Nle-Gly-His-Cys-D-Phe-Arg-Trp-Asp-Arg-Phe-NH2 [3-7] (YV[Nle]GHC[dF]RWDRF-NH2; numbers in words are those of the source; also: oxorhenium(V) N3S1 chelate complex (Re=O))
28

---

molecular target: hMC3-R (Homo sapiens); construct: expressed in transfected cells; test: competitive inhibition binding assay, 125I-NDP-alpha-MSH, hMC3-R membranes; details: 1 μM test peptide; 0.4 nM 125I-NDP-alpha-MSH; hMC3-R membranes
Sequence (P41968 whole entry): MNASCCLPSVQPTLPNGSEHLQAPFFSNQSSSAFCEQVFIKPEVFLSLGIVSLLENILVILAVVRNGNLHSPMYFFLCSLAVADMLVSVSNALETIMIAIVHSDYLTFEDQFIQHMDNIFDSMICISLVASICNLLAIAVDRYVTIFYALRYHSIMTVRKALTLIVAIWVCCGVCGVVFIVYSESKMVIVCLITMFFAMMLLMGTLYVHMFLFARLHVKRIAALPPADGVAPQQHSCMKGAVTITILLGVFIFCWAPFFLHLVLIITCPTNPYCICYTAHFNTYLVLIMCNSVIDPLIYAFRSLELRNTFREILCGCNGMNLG
Square brackets hold non-standard residues; d marks the D form. Ends that are not written are not given here. Nle = CCCC[C@H](N)C(=O)O
assay-readout: % Inhibition at 1 μM at Melanocortin Receptor 3 (%)
Form entry: value (%) — number only.

Tyr-Val-Nle-Gly-His-Phe-Arg-Trp-Asp-Cys-Arg-Phe-NH2 (YV[Nle]GHFRWDCRF-NH2; numbers in words are those of the source; also: oxorhenium(V) N3S1 chelate (Re=O) with Cys) [4-3]
18

# query: % Inhibition at 1 μM at Melanocortin Receptor 3 | item Tyr-Val-Nle-Gly-His-D-Phe-Arg-Trp-Asp-Arg-Phe-Cys-NH2 (FRWDRFC; Tyr-Val-Nle-Gly-His N-term; D-residue; amide; printed: Phe-Arg-Trp-Asp-Arg-Phe-Cys-) [3-1] | system: hMC3-R (Homo sapiens)
96

Lab request: please report % Inhibition at 1 μM at Melanocortin Receptor 3 under test system hMC3-R (Homo sapiens) for Ac-Ser-Tyr-Ser-Nle-Glu-Cys-His-Phe-Arg-Trp-Gly-Lys-Pro-Val-NH2 (Ac-SYS[Nle]ECHFRWGKPV-NH2; not fully specified (bridges); printed as Ac-Ser-Tyr-Ser-Nle-Glu-Cys-His-Phe-Arg-Trp-Gly-Lys-Pro-Val-NH2; numbers in words are those of the source; also: oxorhenium(V) N3S1 chelate (Re(V)=O)) [1-9]
0

---

Form field: % Inhibition at 1 μM at Melanocortin Receptor 5 (one value per entry).
molecular target: hMC5-R (Homo sapiens, UniProt P33032); construct: expressed in transfected cells; experiment: competitive inhibition binding assay, 125I-NDP-alpha-MSH, hMC5-R membranes; conditions: 1 μM test peptide; 0.4 nM 125I-NDP-alpha-MSH; hMC5-R membranes
Sequence (P33032 whole entry): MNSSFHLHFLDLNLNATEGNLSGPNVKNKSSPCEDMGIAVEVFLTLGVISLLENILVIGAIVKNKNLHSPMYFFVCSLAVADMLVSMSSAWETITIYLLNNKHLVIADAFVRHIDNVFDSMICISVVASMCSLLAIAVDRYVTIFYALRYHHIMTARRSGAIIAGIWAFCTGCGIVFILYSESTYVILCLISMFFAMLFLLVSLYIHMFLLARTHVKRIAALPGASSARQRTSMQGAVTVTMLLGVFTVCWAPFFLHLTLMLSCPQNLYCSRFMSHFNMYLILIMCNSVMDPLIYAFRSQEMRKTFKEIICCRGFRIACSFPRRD
Square brackets hold non-standard residues; d marks the D form. Ends that are not written are not given here. Nle = CCCC[C@H](N)C(=O)O
Write the number in % without appending the unit.

Tyr-Val-Nle-Gly-His-D-Phe-Arg-Cys-Trp-Asp-Arg-Phe-NH2 (YV[Nle]GH[dF]RCWDRF-NH2; also: Re complex) [3-5]
81
Tyr-Val-Nle-Gly-His-Phe-Arg-Trp-Asp-Arg-Phe-Cys-NH2 (GHFRWDRFC; N-terminal Tyr-Val-Nle; C-terminal amide; printed: Gly-His-Phe-Arg-Trp-Asp-Arg-Phe-Cys-) [4-1]
41
Ac-Ser-Tyr-Ser-Nle-Cys-Glu-His-Phe-Arg-Trp-Gly-Lys-Pro-Val-NH2 (Ac-SYS[Nle]CEHFRWGKPV-NH2; not fully specified (bridges); printed as Ac-Ser-Tyr-Ser-Nle-Cys-Glu-His-Phe-Arg-Trp-Gly-Lys-Pro-Val-NH2; numbers in words are those of the source; also: oxorhenium(V) N3S1 chelate (Re(V)=O)) [1-10]
5

Lab note: need % Inhibition at 1 μM at Melanocortin Receptor 5 with hMC5-R (Homo sapiens, UniProt P33032) for entry Ac-Ser-Tyr-Ser-Nle-Glu-His-Phe-Cys-Arg-Trp-Gly-Lys-Pro-Val-NH2 (Ac-SYS[Nle]EHFCRWGKPV-NH2; not fully specified (bridges); printed as Ac-Ser-Tyr-Ser-Nle-Glu-His-Phe-Cys-Arg-Trp-Gly-Lys-Pro-Val-NH2; numbers in words are those of the source; also: oxorhenium(V) N3S1 chelate (Re(V)=O)) [1-7] , please look it up.
0

---

molecular target: hMC4-R (Homo sapiens); construct: expressed in transfected cells; test: competitive inhibition binding assay, 125I-NDP-alpha-MSH, hMC4-R membranes; conditions: 1 μM test peptide; 0.4 nM 125I-NDP-alpha-MSH; hMC4-R membranes
Square brackets hold non-standard residues; d marks the D form. Ends that are not written are not given here. Nle = CCCC[C@H](N)C(=O)O
Overview of recorded % Inhibition at 1 μM at Melanocortin Receptor 4 for various substances
Form entry: value (%) — number only.

Guide cases for % Inhibition at 1 μM at Melanocortin Receptor 4, answers given:
Tyr-Val-Nle-Gly-His-D-Phe-Arg-Trp-Asp-Arg-Cys-NH2 (YV[Nle]GH[dF]RWDRC-NH2; numbers in words are those of the source; also: oxorhenium(V) N3S1 chelate complex (Re=O)) [5-1]
95
Ac-Ser-Tyr-Ser-Nle-Glu-D-Cys-His-Phe-Arg-Trp-Gly-Lys-Pro-Val-NH2 (Ac-SYS[Nle]E[dC]HFRWGKPV-NH2; numbers in words are those of the source; also: oxorhenium(V) N3S1 chelate via Cys (Re(V)=O)) [2-9]
35
Tyr-Val-Nle-Gly-His-Phe-Arg-Trp-Asp-Arg-Phe-Cys-NH2 (GHFRWDRFC; N-terminal Tyr-Val-Nle; C-terminal amide; printed: Gly-His-Phe-Arg-Trp-Asp-Arg-Phe-Cys-) [4-1]
36
Ac-Ser-Tyr-Ser-Nle-Glu-His-Phe-Arg-Cys-Trp-Gly-Lys-Pro-Val-NH2 (Ac-SYS[Nle]EHFRCWGKPV-NH2; not fully specified (bridges); printed as Ac-Ser-Tyr-Ser-Nle-Glu-His-Phe-Arg-Cys-Trp-Gly-Lys-Pro-Val-NH2; numbers in words are those of the source; also: oxorhenium(V) N3S1 chelate (Re(V)=O)) [1-6]
0
Tyr-Val-Nle-Gly-His-D-Phe-Arg-Trp-Cys-Arg-Phe-NH2 (YV[Nle]GH[dF]RWCRF-NH2; numbers in words are those of the source; also: oxorhenium(V) N3S1 chelate complex (Re=O)) [5-3]
97

Would you kindly share the measured % Inhibition at 1 μM at Melanocortin Receptor 4 for Ac-Ser-Tyr-Ser-Nle-Glu-His-Cys-Phe-Arg-Trp-Gly-Lys-Pro-Val-NH2 (Ac-SYS[Nle]EHCFRWGKPV-NH2; not fully specified (bridges); printed as Ac-Ser-Tyr-Ser-Nle-Glu-His-Cys-Phe-Arg-Trp-Gly-Lys-Pro-Val-NH2; numbers in words are those of the source; also: oxorhenium(V) N3S1 chelate (Re(V)=O)) [1-8] ?
0

% Inhibition at 1 μM at Melanocortin Receptor 4 lookup needed for Ac-Ser-Tyr-Ser-Nle-Glu-His-Phe-Arg-Trp-Cys-Gly-Lys-Pro-Val-NH2 (Ac-SYS[Nle]EHFRWCGKPV-NH2; not fully specified (bridges); printed as Ac-Ser-Tyr-Ser-Nle-Glu-His-Phe-Arg-Trp-Cys-Gly-Lys-Pro-Val-NH2; numbers in words are those of the source; also: oxorhenium(V) N3S1 chelate (Re(V)=O)) [1-5] , thanks.
0

---

target: MC1-R (Mus musculus, UniProt Q01727); construct: membranes prepared from hMC3-R, hMC4-R, hMC5-R, and B-16 mouse melanoma cells (containing MC1-R); endogenous in cells; host or cells: B-16 mouse melanoma cells (membranes); assay: competitive inhibition binding assay, 125I-NDP-alpha-MSH, B-16 mouse melanoma cell membranes; details: 1 μM test peptide; 0.4 nM 125I-NDP-alpha-MSH; B-16 mouse melanoma cell membranes
Sequence (Q01727 whole entry): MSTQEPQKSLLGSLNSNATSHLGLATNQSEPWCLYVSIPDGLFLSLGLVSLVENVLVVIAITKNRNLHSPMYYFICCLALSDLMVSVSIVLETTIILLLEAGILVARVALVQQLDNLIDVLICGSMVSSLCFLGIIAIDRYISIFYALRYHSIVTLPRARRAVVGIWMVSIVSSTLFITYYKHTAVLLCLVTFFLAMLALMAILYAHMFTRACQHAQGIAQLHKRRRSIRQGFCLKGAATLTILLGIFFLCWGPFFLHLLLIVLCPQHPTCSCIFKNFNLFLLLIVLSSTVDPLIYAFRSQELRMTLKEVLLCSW
Square brackets hold non-standard residues; d marks the D form. Ends that are not written are not given here. Nle = CCCC[C@H](N)C(=O)O
# if value of % Inhibition at 1 μM at Melanocortin Receptor 1 reaches 90%, tag 1; if it stays below, tag -1

Solved cases below.
Tyr-Val-Nle-Gly-His-D-Phe-Arg-Trp-Cys-Arg-Phe-NH2 (YV[Nle]GH[dF]RWCRF-NH2; numbers in words are those of the source; also: oxorhenium(V) N3S1 chelate complex (Re=O)) [5-3]
1
Ac-Ser-Tyr-Ser-Nle-Glu-His-Phe-Arg-Trp-Gly-Lys-Gly-Cys-Val-NH2 (Ac-SYS[Nle]EHFRWGKGCV-NH2; not fully specified (bridges); printed as Ac-Ser-Tyr-Ser-Nle-Glu-His-Phe-Arg-Trp-Gly-Lys-Gly-Cys-Val-NH2; numbers in words are those of the source; also: oxorhenium(V) N3S1 chelate (Re(V)=O)) [1-2]
-1

Given the entry Ac-Ser-Tyr-Ser-Nle-Glu-His-Phe-Arg-Trp-Gly-Lys-Cys-Pro-Val-NH2 (Ac-SYS[Nle]EHFRWGKCPV-NH2; not fully specified (bridges); printed as Ac-Ser-Tyr-Ser-Nle-Glu-His-Phe-Arg-Trp-Gly-Lys-Cys-Pro-Val-NH2; numbers in words are those of the source; also: oxorhenium(V) N3S1 chelate (Re(V)=O)) [1-3] , answer whether its % Inhibition at 1 μM at Melanocortin Receptor 1 meets or surpasses 90%.
-1

Confirm if % Inhibition at 1 μM at Melanocortin Receptor 1 reported for the substance Ac-Ser-Tyr-Ser-Nle-Glu-His-Phe-Arg-Trp-Gly-Lys-Gly-Val-Cys-NH2 (Ac-SYS[Nle]EHFRWGKGVC-NH2; not fully specified (bridges); printed as Ac-Ser-Tyr-Ser-Nle-Glu-His-Phe-Arg-Trp-Gly-Lys-Gly-Val-Cys-NH2; numbers in words are those of the source; also: oxorhenium(V) N3S1 chelate (Re(V)=O)) [1-1] is 90% or above.
1

Given Tyr-Val-Nle-Gly-His-Cys-D-Phe-Arg-Trp-Asp-Arg-Phe-NH2 [3-7] (YV[Nle]GHC[dF]RWDRF-NH2; numbers in words are those of the source; also: oxorhenium(V) N3S1 chelate complex (Re=O)) , state whether its % Inhibition at 1 μM at Melanocortin Receptor 1 is at least 90%.
-1
